Target: T1, FITC labeled BCMA (acrobiosystem, Cat. No. BCA-HF254) (UniProt Q02223 1-54, FITC labeled (site not stated))
T1 construct: Soluble labeled protein used to stain CAR-T cells; also called BCMA antigen protein; BCMA protein
T1 sequence (looked up): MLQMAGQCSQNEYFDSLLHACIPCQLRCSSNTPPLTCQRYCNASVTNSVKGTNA
Test: flow cytometry, CAR-T cells stained with FITC labeled BCMA
value-kind: binding result

Query string: Field request: binding result | item: chimeric antigen receptor comprising humanized anti-BCMA single domain antibody BH86_V2, on CAR-T cells (other) EVQLVESGGGLVKPGGSLRLSCAASGRAISSIVMAWVRQAPGKGLEWVASINRWGGTPYYSAPVKGRFTISRDDSKNTLYLQMNSLKTEDTAVYYCAAASTLDSGYDYWGQGTLVTVSSTTTPAPRPPTPAPTIASQPLSLRPEACRPAAGGAVHTRGLDFACDIYIWAPLAGTCGVLLLSLVITLYCKRGRKKLLYIFKQPFMRPVQTTQEEDGCSCRFPEEEEGGCELRVKFSRSADAPAYQQGQNQLYNELNLGRREEYDVLDKRRGRDPEMGGKPRRKNPQEGLYNELQKDKMAEAYSEIGMKGERRRGKGHDGLYQGLSTATKDTYDALHMQALPPR
Result string: binds

Query string: For chimeric antigen receptor comprising humanized anti-BCMA single domain antibody BH60_V5, on CAR-T cells (other) QVQLVESGGGLVQPGGSLRLSCVVSGGIFTINDMAWFRQAPGKQRELVAHISRSGSTYYRDFVKGRFTISRDNSKNTLYLQMNSLRAEDTATYYCNSIDRPLSYGQGTLVTVSTTTPAPRPPTPAPTIASQPLSLRPEACRPAAGGAVHTRGLDFACDIYIWAPLAGTCGVLLLSLVITLYCKRGRKKLLYIFKQPFMRPVQTTQEEDGCSCRFPEEEEGGCELRVKFSRSADAPAYQQGQNQLYNELNLGRREEYDVLDKRRGRDPEMGGKPRRKNPQEGLYNELQKDKMAEAYSEIGMKGERRRGKGHDGLYQGLSTATKDTYDALHMQALPPR , what is its reported binding result?
Result string: binds
